Test system: BT-549 breast
assay.notes: NCI-60 one-dose screen, 48 h
condition: 10 µM
Protocol: Growth inhibition of the BT-549 human tumor cell line is measured as a screen for anti-cancer activity. Cells are grown in 96 well plates and exposed to the test compound for 48 hours. Compounds are tested at a single concentration, which is 10^-5 M for most compounds. The reported endpoint is percent growth (GI% or GIPRCNT), where numbers from 0 - 100% represent growth inhibition, and numbers from -100% - 0 represent cell death. For example, a value of 40 represents 60% growth inhibition. […]
Compounds without any hit were thinned out: in the full panel of roughly 83,000, 20% have a hit. Calls of active or inactive are those of the source. The calls were made as follows: active = growth percent below 10; inactive = the rest.
Permitted responses: active, inactive

Check out these entries, answers already filled in.
[
  {
    "compound": "CCCCCCCCCCCC[n+]1c(C)cc(N)c2ccccc21",
    "assigned.label": "active"
  },
  {
    "compound": "OCC1OC(n2ccc3c(NO)ncnc32)C(O)C1O (stereo unspecified)",
    "assigned.label": "active"
  },
  {
    "compound": "O=C(O)c1cn(C2CC2)c2cc(N3CCN(C(=O)c4cc(-c5ccc(Cl)cc5)nc5ccccc45)CC3)c(F)cc2c1=O",
    "assigned.label": "inactive"
  }
]

For this compound, state the assay outcome: "CC(C)(O)CCl"
inactive

For this compound, state the assay outcome: "CCOC(=O)c1cc(C(=O)c2ccc(F)cc2F)n2ccccc12"
inactive

---

Tested on: UACC-62 melanoma
assay.notes: NCI-60 one-dose screen, 48 h (100 = growth as untreated, 0 = no growth, -100 = all killed)
condition: 10 µM
About 83,000 compounds went through this panel and 20% of them were active in at least one assay; those are over-represented in the sample as a whole.
result.type: growth (%)
Expressed in %, but write only the number.

Examples with answers:
[
  {
    "molecule": "CCN(CCCNc1cc2c(c(N)c1S(=O)(=O)O)C(=O)c1ccccc1C2=O)c1ccccc1",
    "result.type": "growth",
    "unit.spec": "%",
    "measured": 92.1
  },
  {
    "molecule": "CCCCCCCCCCCC[n+]1c(C)cc(N)c2ccccc21",
    "result.type": "growth",
    "unit.spec": "%",
    "measured": -27.8
  },
  {
    "molecule": "O=C(COc1cccc(/C=C2\\CSc3ccccc3C2=O)c1)c1ccc(Cl)cc1",
    "result.type": "growth",
    "unit.spec": "%",
    "measured": -73.9
  },
  {
    "molecule": "NS(=O)(=O)Oc1ccc(NC(=O)C2CCCCCC2)cc1",
    "result.type": "growth",
    "unit.spec": "%",
    "measured": 99.7
  },
  {
    "molecule": "Cc1ccc(S(=O)(=O)N/N=C2\\CCCc3ccccc32)cc1",
    "result.type": "growth",
    "unit.spec": "%",
    "measured": 92.9
  },
  {
    "molecule": "COc1cc(/C=C/c2cc(/C=C/c3ccc(O)c(OC)c3)n(C(=O)Nc3ccc(C)cc3)n2)ccc1O",
    "result.type": "growth",
    "unit.spec": "%",
    "measured": -0.493
  },
  {
    "molecule": "CCn1c(SCCc2ccccc2)nnc1-c1nn(-c2ccc(Cl)cc2Cl)c(-c2ccc(Cl)cc2)c1C",
    "result.type": "growth",
    "unit.spec": "%",
    "measured": 68.6
  },
  {
    "molecule": "COc1ccc(-c2nn(-c3cccc(Cl)c3)cc2-c2c(C#N)c(=O)n3[nH]c(-c4ccccc4)nc3c2C#N)cc1",
    "result.type": "growth",
    "unit.spec": "%",
    "measured": 99.3
  }
]

The recorded growth for "Cc1cc(O)ccc1C1=NN(c2ccc(S(C)(=O)=O)cc2)C(=O)CC1" is 52.9

The recorded growth for "C[C@]12CC[C@@H]3c4ccc(OS(=O)(=O)O)cc4CC[C@H]3[C@@H]1CC[C@@H]2NS(=O)(=O)c1ccc(-c2ccccc2)cc1" is 79.1

The recorded growth for "N#Cc1c(-c2ccc(Cl)cc2)cc(-c2cc(O)ccc2O)nc1N" is -25.6

The recorded growth for "O=c1cn[nH]c2ccc(Br)cc12" is 112

The recorded growth for "CCOC(=O)CN(c1sc(C)c(C)c1C(=O)OCC)S(=O)(=O)c1ccc(C)cc1" is 68.2

The recorded growth for N#CC1=CC2CN(Cc3ccccc3)C1C1C(=O)N(c3ccccc3)C(=O)C21 (stereo unspecified) is 90.7

The recorded growth for "Cc1ccc(NC(=S)NNC(=S)Nc2ccc(C)cc2)cc1" is 48.2

The recorded growth for "CCOC(=O)c1cocc1C(=O)O" is 116

The recorded growth for "COc1ccc2nc3cc(Cl)ccc3c(NCCCNCCO)c2c1" is -64.2

The recorded growth for "COc1ccc(C(=O)CC(CC(=O)c2ccc(OC)cc2)c2c(C)nn(-c3ccccc3)c2Cl)cc1" is 88.3

The recorded growth for "CC1=NN(C(=O)c2nn(-c3ccc(Cl)cc3)cc2O)C(=O)C1" is 41.5

The recorded growth for "CS(=O)(=O)c1nccc(-c2c(-c3cccc(OCc4ccc(F)cc4)c3)nc3sccn23)n1" is 60.1

The recorded growth for "CC(C)(C)OC(=O)CN1CCc2c(sc3ncnc(N/N=C/c4cccc5ccccc45)c23)C1" is 6.64

Reference source: PubChem BioAssay (NCI)
